Values from paper PMC12040169

Provide the reported viability at 28.5 h, 10 µM of each item.
# Experiment description: in vitro
# Condition notes: human, hela cells, % viability
Give the value, in units of %, as a plain number.

Respond only with viability at 28.5 h, 10 µM recorded for COC(=O)c1c(NC(=O)C2CC(=O)NN2C)sc2c1CCC2 (stereo not drawn) [CBK269218A] 89.2

Respond only with viability at 28.5 h, 10 µM recorded for CC(=O)NCCCCCC(=O)N1CCN(c2ccc(C(F)(F)F)cc2)CC1 92.8

Respond only with viability at 28.5 h, 10 µM recorded for O=C(Nc1cccc2ccccc12)c1ccc(CSCc2ccccc2)cc1 105

Respond only with viability at 28.5 h, 10 µM recorded for CCCCn1c(NCc2nc3ccccc3n2C)nc2ccccc21 87.2

Respond only with viability at 28.5 h, 10 µM recorded for C/C(=N\Nc1nnc2c(n1)[nH]c1ccccc12)c1ccccn1 94.5

Respond only with viability at 28.5 h, 10 µM recorded for COC(=O)/C=C/c1cn(C2CC(O)C(CO)O2)c(=O)[nH]c1=O (stereo not drawn) 105

Respond only with viability at 28.5 h, 10 µM recorded for Cc1noc(C)c1CC(=O)N1CCc2[nH]c3ccccc3c2C1 97.8

Respond only with viability at 28.5 h, 10 µM recorded for Cc1ccc2c(c1)c(=O)cc(C(F)(F)F)n2C[C@H]1CCCN1 36.2

Respond only with viability at 28.5 h, 10 µM recorded for O=C(c1ccco1)N1CCN(c2cc(-c3ccc(OCc4ccccc4)cc3)ncn2)CC1 97.6

Respond only with viability at 28.5 h, 10 µM recorded for COc1cc(OC)nc(C(NC(=O)C2CCN(Cc3cccn3C)CC2)c2ccc(F)cc2)n1 (stereo not drawn) 104

Respond only with viability at 28.5 h, 10 µM recorded for Cc1[nH]c2ccccc2c1/C=N/c1ccc(S(N)(=O)=O)cc1 96

Respond only with viability at 28.5 h, 10 µM recorded for O=C(c1sc2ccccc2c1Cl)N1CCN(CCN2C(=O)c3cccc4cccc(c34)C2=O)CC1 99

###

# Experiment description: in vitro
# Condition notes: human, hela cells, % viability
Provide the reported viability at 28.5 h, 10 µM of each item.

Respond only with viability at 28.5 h, 10 µM recorded for O=C(C1CCCCC1)N1CCCC(c2cc3cccnc3[nH]2)C1 (centres unmarked) 98.4%

Respond only with viability at 28.5 h, 10 µM recorded for Cc1nn(C)c(N2CCNCC2)c1NC(=O)c1cccn1C [CBK050309T] 94.8%

Respond only with viability at 28.5 h, 10 µM recorded for CC(=O)N1CCc2c([nH]c3c(C)cccc23)C12CCCN(CCCC#N)C2 (centres unmarked) 104%

Respond only with viability at 28.5 h, 10 µM recorded for O=C(CN(c1ccccc1)S(=O)(=O)c1ccccc1)N1CCN(Cc2ccc3c(c2)OCO3)CC1 90%

Respond only with viability at 28.5 h, 10 µM recorded for CCOc1ccc2nc(NC(=O)CC)sc2c1 107%

###

Provide the reported viability at 28.5 h, 10 µM of each item.
# Experiment description: in vitro
# Condition notes: human, hela cells, % viability
Answer format: value, then unit.

Respond only with viability at 28.5 h, 10 µM recorded for C#C[C@H]1C[N@@]2CC[C@H]1C[C@@H]2CNS(=O)(=O)c1cccc(C#N)c1 [CBK288753] 106%

Respond only with viability at 28.5 h, 10 µM recorded for CC(C)(C)SCCNC(=S)NCCO [CBK020686] 98.7%

Respond only with viability at 28.5 h, 10 µM recorded for O=S(=O)(NCc1nc2ccccc2[nH]1)c1ccccc1 [CBK269460] 94.6%

Respond only with viability at 28.5 h, 10 µM recorded for O=C(Cc1csc(NS(=O)(=O)c2ccc(-c3cccc([N+](=O)[O-])c3)cc2)n1)N1CCOCC1 [CBK200032] 110%

Respond only with viability at 28.5 h, 10 µM recorded for COCC(=O)NC1CCN(CC2(c3cccc(F)c3)CCCC2)CC1 [CBK282546] 108%

Respond only with viability at 28.5 h, 10 µM recorded for O=C(c1ccc2ncccc2c1)N1CCC(c2ccncc2)CC1 [CBK283684] 90.3%

Respond only with viability at 28.5 h, 10 µM recorded for CSc1ncc(Cl)c(C(=O)Nc2sc3c(c2C(=O)NCC2CCCO2)CCC3)n1 (stereo not shown) [CBK268959] 95%

Respond only with viability at 28.5 h, 10 µM recorded for O=C(O)/C=C\C(=O)Nc1ccccc1C(=O)N1CCOCC1 [CBK287067] 100%

Respond only with viability at 28.5 h, 10 µM recorded for Cc1cc(=O)n2c3c(cc(S(=O)(=O)NC4CC4)cc13)CCC2 [CBK307572] 87%

Respond only with viability at 28.5 h, 10 µM recorded for O=S(=O)(Nc1cccc2cc[nH]c12)c1ccc(F)cc1F [CBK153586] 85.3%

Respond only with viability at 28.5 h, 10 µM recorded for Cc1cccc(-c2n[nH]c(=S)n2CC(=O)NCCCS(=O)(=O)Cc2ccccc2)c1 [CBK297942] 103%

Respond only with viability at 28.5 h, 10 µM recorded for O=C(Nc1cccnc1)c1cnc2cc(Cl)ccc2c1O [CBK107353] 82.6%

Respond only with viability at 28.5 h, 10 µM recorded for CCOc1ccc(S(=O)(=O)N(C)CC(=O)N2CCN(C)CC2)cc1Cl [CBK269865] 101%

Respond only with viability at 28.5 h, 10 µM recorded for O=C(CN1CCC(c2ccc(F)cc2)CC1)N1CCCC1 [CBK283502] 98.7%

Respond only with viability at 28.5 h, 10 µM recorded for CN(C)CCCOC(=O)C(C)(c1ccccc1)c1ccccc1 [CBK265325C] 118%

Respond only with viability at 28.5 h, 10 µM recorded for O=C(NCc1ccc2c(c1)OCO2)c1ccc(Oc2ccccc2)cc1 [CBK293982] 91.4%

Respond only with viability at 28.5 h, 10 µM recorded for O=C(O)CN1C(=O)[C@@H]2Cc3ccccc3CN2C1=O [CBK202728] 82.8%

Respond only with viability at 28.5 h, 10 µM recorded for Oc1cccc2c1CC(NCC(F)(F)C(F)(F)F)CC2 (stereo not shown) [CBK007596] 96.5%

Respond only with viability at 28.5 h, 10 µM recorded for OC(COCc1ccc2c(c1)OCO2)CN1CCN(Cc2ccccc2)CC1 (stereo not shown) [CBK278249C] 93.5%

Respond only with viability at 28.5 h, 10 µM recorded for CCSc1nc(N2CCNC[C@@H]2C)ccc1C(F)(F)F [CBK003986A] 96.1%

Respond only with viability at 28.5 h, 10 µM recorded for Brc1ccc(OCCCCCCN2CCCCC2)cc1 [CBK261784] 97%

Respond only with viability at 28.5 h, 10 µM recorded for OCCCNCC(O)CN1c2ccccc2Sc2ccccc21 (stereo not shown) [CBK027632G] 98.4%

Respond only with viability at 28.5 h, 10 µM recorded for COc1ccc(N(CCN2CCCCC2)S(=O)(=O)c2ccc(C)cc2)cc1 [CBK261131] 98.7%

Respond only with viability at 28.5 h, 10 µM recorded for O=C(CCCn1ccnc1)NCC1(c2cccc(F)c2)CCCC1 [CBK281500] 88.5%

Respond only with viability at 28.5 h, 10 µM recorded for CC(=O)N1CCOC(CNc2nc(C(C)(C)C)nc3c2cnn3C)C1 (stereo not shown) [CBK307469] 89.4%

Respond only with viability at 28.5 h, 10 µM recorded for NC(=O)c1ccc(NC(=O)N2CCN(CCN3CCOCC3)CC2)cc1 [CBK155831] 81.6%

Respond only with viability at 28.5 h, 10 µM recorded for Cc1nn(C)c(C)c1CN(C)C(=O)CCCC(=O)O [CBK286879] 82.8%

Respond only with viability at 28.5 h, 10 µM recorded for CC1(C)CC(=O)C=C(NCC2CCNCC2)C1 [CBK027580] 87.9%
